Cited source for all entries: the domain aggregation screens of Martell et al. (2025)

test: soluble fraction after stress (log2 fold change); higher = more stays soluble; pooled small domains, quantitative proteomics; settings: stress: pH 4
Reported property: soluble fraction (log2)

query: Given "HMDVQEILGALSPDEKAAIGQLTSGEKHIDQIIAATRLPAARITSALTLLQIKGYVRALPGKRFSLTEKQ" , respond with its soluble fraction (log2).
result: ≥ 0.43

query: Quote soluble fraction (log2) reported for "HMRNQIRAVITPVPNQERYTVEMTIDDDAGNLLTLQMAAPDRQQAAEFAQRFQKHPEALYHAVLSVLL" please.
result: -0.191

query: Answer with the recorded soluble fraction (log2) for the sequence listed here: "HMDNPLSQQEKRILQLISLGKTNQEIADILYLSNGTVRNYISSILNKLSANNRVEAARIAEEHGW"
result: -0.929

query: Give the reported soluble fraction (log2) for this sequence. "HMNGTEAIRRYIDQFASKHATTPRMLKLNERKQLIQELKNNGLLEIKKAVETVAQHLGISRASAYLYVKE"
result: ≥ 0.43

query: Please give measured soluble fraction (log2) of the following entry: "HMNQEQQSAVMSALKATLPDLEAALEARQFKESKQLLKTAQNQFQQLDGRNRRGFQARIQLLAGQFRELS"
result: -0.00484

query: // fetch soluble fraction (log2) given entry "HMLTAPMPGIVTEILVKEGQRVRSGQPLMILEAMKMEHQVTAPKSGQIEKIYFSEGEKVDMGSDLLSIS"
result: -0.0146

query: Identify measured soluble fraction (log2) corresponding to "HMKVTQDIIFKRNGEEIKSKVLEITPDLIIYIDYSRADNIAREINISEVNMIIYKNGTSEIFSRPEE"
result: -1.15

query: Give me measured soluble fraction (log2), please, for this sequence: "HMLKTADAIASVLLTRIQAGEFSAGRLPAERALSEAFSTTRITLREALGKLEAQGMIYRELRRGWFIA"
result: -1.3

query: Please indicate soluble fraction (log2) recorded for "HMGQGSAFVYYEVLPKQTEYSLTRKLGLGYADLLSLNPQLARGLQAGMVLKIPRDKAGNLEVKNDLILE"
result: 0.165

query: Respond only with soluble fraction (log2) recorded for "HMAVSSYSVKRYIRNMIQAEDPSAPFSDEALRLALLAHGIAVSRRVVTKYRMAMDIPSSSQRRKR"
result: -0.12

query: Return reported soluble fraction (log2). Input sequence: "HMAARLMRALIPYAQGGLLAKLHEDGQVLSEEYTGEGIEVKALADEQLFGRLTVQLGEQAVSWQD"
result: -0.205

query: Consider the sequence "HMDPVATLTPREREVLELMAEGRTNAGIAEAMVVTEGAVEKHIQRIFAKLGLHADGGVHRRVAAVLALLG" and give its recorded soluble fraction (log2).
result: -0.872

query: // fetch soluble fraction (log2) given entry "HMTDLQNDIQAFNLKKMSYQHETKKLEEKRNPEKLEKLEQDIQALYLRIMENPNMRAFDSAKQALYLQIM"
result: -1.55

query: Output measured soluble fraction (log2) for this item: "HMSERIITFGEATREAMLEEMRADERVFVYGEDIAKQGGIFGQFAGMKDEFPERVLDTPISETALVGAG"
result: -0.679

query: Assign soluble fraction (log2) to the following record: "HMSTEAVVMSSSVSVKSSPDKASTDLFVLHEGTKVRTVSELGDWREIVIADGKKGWVEARTIET"
result: 0.151

query: Entry "HMTISDEAMQAGRDAFIQALVAMGAEKNADAMASIEKALSADPGNKEYLATRDLIKKSMGMKK" needs its soluble fraction (log2) filled in; supply it.
result: 0.138

query: Using known records, supply soluble fraction (log2) for "HMTKAILTANDVRNGDIVFWTADQRWSTSIDDAAIGYGKDDTDQLADAGKQAEAANTVVGAYLIALR"
result: -1.14

query: Given "HMDGYTVYTNWGSDTNVARSDQQIQSQIPQLSGATIVGVWTKPIATGGTSYKIRYRTNSGAFTEIDVDQ" , respond with its soluble fraction (log2).
result: -0.0816

query: // Input: "HMGDTHKVPGVKGVNVEQAMDMLSRLDLKAVVIDSVYVKDKKLGTVIEQNPVEGSVVKPGRPIYLVVNSRS" . Output its soluble fraction (log2) only.
result: -0.0241

query: Identify soluble fraction (log2) associated with the sequence "HMTGLFSPTEQTRHSKTGATLYSVKLAERIERNAFQSLKKRAKEHDGYYSSFTRSFLFDTPEDAEAFRGT"
result: -0.0888

query: Given the sequence "HMSDDSYLVALAEAYKNATSWDIRRQVLSIMTGVSSYKEISRYIPGLTQYRLSISNLHRLQYGRAAPVP" , write its reported soluble fraction (log2).
result: -0.217

query: Return value of soluble fraction (log2) for input "HMLDIPEVGQAVQVRGRLGTVFSVAPYDGREGRLHLVTVDYLDDARPPENDEILWEIESGARILG" , no commentary.
result: -0.763

query: Provide measured soluble fraction (log2) value, entry: "HMGSYVVQLGAFAIRANAEKLAREVDGSIATSGRFSLVRVGPFTSRGQAEQALAKLRARGYSDALIHSL"
result: -0.234

query: # return recorded soluble fraction (log2) for entry "HMDFDPDVPSREDILQAFRDSKPPLTVNALISEFGLSRDASIVGLERRMGAMQRDGQLEQTPSGWQLSV"
result: 0.144

query: Give the measured soluble fraction (log2) for "HMGKSKAAQSSLVRSIMHQISDKNRGPMPLSEIIDRASIQSIDEAIVRSLVSRMKEQGEIYEPSLGTYEF"
result: -0.163

query: Recall and state the measured soluble fraction (log2) for "HMTKYKEIVDQLRTNIYEGVFPALSKLPEQTALAKRFQTSRMTIQKALNQLKQEGLISTKRGHGTYVNSAT" .
result: 0.021
